Test system: S. pneumoniae C719
TEST_METHOD_NOTES: Antimicrobial assays II, NCCLS broth microdilution MIC
Assay type: cell-based, Streptococcus pneumoniae
TEST_CONTEXT: mean of three, in µg/mL
No end group written: not given here.
Assign S. pneumoniae MIC to each entry below.

Worked examples follow.
substance="FAKKLAKKLL-NH2 [P59]" reading=4
substance="GIGKFLKKAKKFGKAFVKILKK-NH2 [P42, reference compound]" reading=8
substance="FAVGLRAIKRALKKLRRGVRKVAKDL-NH2 [P157, reference compound]" reading=16

State the recorded S. pneumoniae MIC for every item in the following list.
1. FAKLLAKALKKFAL-NH2 [P119, FAKLLAKALKKFAL-NH2]
2. FAKKLAKKLKKLAKKLAKKWKL-OH [P72]
3. FAKLLAKLAKKLL-NH2 [P43]

32
16
4
